testTarget: mouse SMO^W535L (Mus musculus, UniProt P56726, W539L)
Construct: expressed in transfected cells
Sequence (P56726 33-793 W539L): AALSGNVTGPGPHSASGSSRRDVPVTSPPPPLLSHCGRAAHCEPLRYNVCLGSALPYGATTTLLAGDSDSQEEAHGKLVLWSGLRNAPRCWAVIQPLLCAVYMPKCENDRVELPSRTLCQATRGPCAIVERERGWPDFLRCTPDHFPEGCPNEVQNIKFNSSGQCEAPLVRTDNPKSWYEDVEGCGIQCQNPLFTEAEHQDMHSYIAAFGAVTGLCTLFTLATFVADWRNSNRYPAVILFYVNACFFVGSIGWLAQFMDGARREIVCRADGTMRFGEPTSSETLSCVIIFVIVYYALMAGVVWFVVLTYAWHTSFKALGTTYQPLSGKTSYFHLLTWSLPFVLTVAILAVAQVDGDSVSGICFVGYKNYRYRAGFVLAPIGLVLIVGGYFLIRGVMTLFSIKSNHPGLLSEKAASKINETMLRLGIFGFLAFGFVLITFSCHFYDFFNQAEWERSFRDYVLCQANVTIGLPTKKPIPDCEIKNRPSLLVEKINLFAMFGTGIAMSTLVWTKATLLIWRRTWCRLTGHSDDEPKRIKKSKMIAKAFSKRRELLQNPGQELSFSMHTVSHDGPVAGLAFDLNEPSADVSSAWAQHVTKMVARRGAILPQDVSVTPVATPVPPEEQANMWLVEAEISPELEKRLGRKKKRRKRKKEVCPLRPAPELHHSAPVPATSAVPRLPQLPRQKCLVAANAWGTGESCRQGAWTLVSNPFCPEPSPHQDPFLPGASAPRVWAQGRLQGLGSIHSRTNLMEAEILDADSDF
assayProcedure: Mouse assay: Gli1 qPCR in MEF cells stably expressing mouse SMO W535L; note: test concentration or dose not given here
Type: cell-based
conditionNotes: mSHh-treated, 24 hours, percentage Gli1 inhibition
attributeMeasured: Mouse W535L % Inh (%)

Worked cases, answers included:
[
  {
    "molecule": "Cc1oc(-c2ccc(NC(=O)c3cccc(CN4CCS(=O)(=O)CC4)c3)cc2)nc1C1CC1",
    "result": 75.3
  },
  {
    "molecule": "Cl.O=C(Nc1ccc(-c2nnc(C3CC3)o2)cc1)c1cccc(CN2CCS(=O)(=O)CC2)c1",
    "result": 65.9
  },
  {
    "molecule": "O=C(Nc1ccc(-c2nc(C3CC3)n[nH]2)cc1)c1ccc(Cl)c(CN2CCS(=O)(=O)CC2)c1",
    "result": 72.2
  }
]

1: COc1ccc(-c2n[nH]c(-c3ccc(NC(=O)c4cccc(CN5CCS(=O)(=O)CC5)c4)cc3)n2)cc1
2: O=C(Nc1ccc(-c2nc(C3CC3)n[nH]2)cc1)c1ccc(F)c(CN2CCS(=O)(=O)CC2)c1
Hi, I'm comparing two records. Which one has the lower Mouse W535L % Inh, 1 or 2 ? Answer = label.
1

###

testTarget: human SMO D473H (Homo sapiens, UniProt Q99835, D473H)
Construct: expressed in transfected cells; host or cells: SMO knock-out mouse embryonic fibroblasts (MEF SMO-/-), BacMam transduction
Sequence (Q99835 28-787 D473H): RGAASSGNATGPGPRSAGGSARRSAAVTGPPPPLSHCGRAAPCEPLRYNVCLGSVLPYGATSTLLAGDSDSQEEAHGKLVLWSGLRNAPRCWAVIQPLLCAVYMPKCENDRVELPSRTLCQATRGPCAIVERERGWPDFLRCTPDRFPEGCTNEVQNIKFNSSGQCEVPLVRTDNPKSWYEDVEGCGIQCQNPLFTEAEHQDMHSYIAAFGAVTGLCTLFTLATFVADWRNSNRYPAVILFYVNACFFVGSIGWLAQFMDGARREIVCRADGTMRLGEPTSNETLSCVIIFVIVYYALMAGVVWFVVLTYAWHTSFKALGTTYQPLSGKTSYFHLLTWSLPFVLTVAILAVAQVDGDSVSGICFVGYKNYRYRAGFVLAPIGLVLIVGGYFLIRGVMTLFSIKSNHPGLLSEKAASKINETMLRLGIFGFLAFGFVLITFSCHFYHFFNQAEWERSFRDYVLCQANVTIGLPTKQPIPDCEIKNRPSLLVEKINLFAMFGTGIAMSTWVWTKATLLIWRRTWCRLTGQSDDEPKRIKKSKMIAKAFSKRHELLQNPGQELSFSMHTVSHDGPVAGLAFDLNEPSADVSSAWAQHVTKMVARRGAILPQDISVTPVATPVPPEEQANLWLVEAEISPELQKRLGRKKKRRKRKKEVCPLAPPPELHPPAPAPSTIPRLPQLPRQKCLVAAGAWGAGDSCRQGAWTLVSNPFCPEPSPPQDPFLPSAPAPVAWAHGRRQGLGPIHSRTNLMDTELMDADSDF
assayProcedure: Human assay: Gli1 qPCR in MEF SMO-/- cells BacMam-transduced with hSMO D473H variant
Type: cell-based
conditionNotes: mSHh-treated, 24 hours, Gli1 inhibition by qPCR, read-out: Human D473H pIC50 (converted)
attributeMeasured: IC50 (nM)

[
  {
    "smilesStr": "Cc1c(-c2ccc(NC(=O)c3ccc(Cl)c(CN4CCS(=O)(=O)CC4)c3)cc2)n[nH]c1C1CC1",
    "IC50 / nM": 100
  },
  {
    "smilesStr": "O=C(Nc1ccc(-c2nc(C3CC3)n[nH]2)cc1)c1cc(F)cc(CN2CCS(=O)(=O)CC2)c1",
    "IC50 / nM": 794
  }
]

I: Cn1nc(-c2ccc(NC(=O)c3cccc(CN4CCS(=O)(=O)CC4)c3)cn2)cc1C1CC1
II: O=C(Nc1ccc(-c2cc(C3CC3)n[nH]2)cc1)c1cccc(CN2CCS(=O)(=O)CC2)c1
III: CC(C)c1noc(-c2ccc(NC(=O)c3cccc(CN4CCS(=O)(=O)CC4)c3)cc2)n1
IV: O=C(Nc1ccc(-c2nc(C3CC3)n[nH]2)cc1)c1cccc(CN2CCS(=O)(=O)CC2)c1
V: Cc1oc(-c2ccc(NC(=O)c3ccc(F)c(CN4CCS(=O)(=O)CC4)c3)cc2)nc1C1CC1
Give the ascending ranking of the items by reported IC50. Answer by listing the labels in the requested order.
V, III, II, I, IV
(V: 25.1 nM, III: 50.1 nM, II: 100 nM, I: 794 nM, IV: 1260 nM)

###

testTarget: hSMO WT (Homo sapiens, UniProt Q99835)
Construct: expressed in transfected cells; host or cells: SMO knock-out mouse embryonic fibroblasts (MEF SMO-/-), BacMam transduction
Sequence (Q99835 28-787): as the sequence (Q99835 28-787 D473H) above, with H446D counted along it
assayProcedure: Human assay: Gli1 qPCR in MEF SMO-/- cells BacMam-transduced with hSMO WT
Format: cell-based
conditionNotes: mSHh-treated, 24 hours, Gli1 inhibition by qPCR, read-out: Human WT pIC50 (converted)
attributeMeasured: IC50 (nM)

I: O=C(Nc1ccc(-c2noc(Cc3ccc(F)cc3)n2)cc1)c1cccc(CN2CCS(=O)(=O)CC2)c1
II: Cc1oc(-c2ccc(NC(=O)c3cccc(CN4CCS(=O)(=O)CC4)c3)cc2)nc1C1CC1
III: O=C(Nc1ccc(-c2nc(Cc3ccc(Br)cc3)n[nH]2)cc1)c1cccc(CN2CCS(=O)(=O)CC2)c1
// ranking: key=IC50, reverse=True Returns: the labels arranged in the requested order.
III, I, II
(III: 6.31 nM, I: 0.794 nM, II: 0.501 nM)

###

testTarget: mouse SMO^W535L (Mus musculus, UniProt P56726, W539L)
Construct: expressed in transfected cells
assayProcedure: Mouse assay: Gli1 qPCR in MEF cells stably expressing mouse SMO W535L; note: test concentration or dose not given here
Format: cell-based
conditionNotes: mSHh-treated, 24 hours, percentage Gli1 inhibition
Description: Cell culture. All materials were purchased from Sigma-Aldrich, unless otherwise stated. Compound treatment. […] Cell lysis and one-step qPCR. […] Real-time PCR amplification was detected using the Bio-Rad CFX384 Touch PCR system. […] Real-time data were analysed using the CFX Maestro software (Bio-Rad) and obtained expression values were converted to percentage Gli1 inhibition by normalising to the average Gli1 expression of mSHh-treated control samples.
attributeMeasured: Mouse W535L % Inh (%)

[
  {
    "smilesStr": "Cn1nc(-c2ccc(NC(=O)c3cccc(CN4CCS(=O)(=O)CC4)c3)cn2)cc1C1CC1",
    "testTarget": "mouse SMO^W535L (Mus musculus, UniProt P56726, W539L)",
    "Mouse W535L % Inh / %": 66.4
  },
  {
    "smilesStr": "O=C(Nc1ccc(-c2nc(-c3ccc(C(F)(F)F)s3)n[nH]2)cc1)c1cccc(CN2CCS(=O)(=O)CC2)c1",
    "testTarget": "mouse SMO^W535L (Mus musculus, UniProt P56726, W539L)",
    "Mouse W535L % Inh / %": 58.5
  },
  {
    "smilesStr": "O=C(Nc1ccc(-c2nc(C3CC3)n[nH]2)cc1)c1cc(Cl)cc(CN2CCS(=O)(=O)CC2)c1",
    "testTarget": "mouse SMO^W535L (Mus musculus, UniProt P56726, W539L)",
    "Mouse W535L % Inh / %": 60.2
  },
  {
    "smilesStr": "O=C(Nc1ccc(-c2cc(C3CC3)n[nH]2)cc1)c1cccc(CN2CCS(=O)(=O)CC2)c1",
    "testTarget": "mouse SMO^W535L (Mus musculus, UniProt P56726, W539L)",
    "Mouse W535L % Inh / %": 59.5
  },
  {
    "smilesStr": "O=C(Nc1ccc(-c2nc(C3CC3)n[nH]2)cc1)c1cc(CN2CCS(=O)(=O)CC2)ccc1F",
    "testTarget": "mouse SMO^W535L (Mus musculus, UniProt P56726, W539L)",
    "Mouse W535L % Inh / %": 68.2
  },
  {
    "smilesStr": "O=C(Nc1ccc(-c2noc(Cc3ccc(Cl)cc3)n2)cc1)c1cccc(CN2CCS(=O)(=O)CC2)c1",
    "testTarget": "mouse SMO^W535L (Mus musculus, UniProt P56726, W539L)",
    "Mouse W535L % Inh / %": 82.7
  },
  {
    "smilesStr": "O=C(Nc1ccc(-c2nc(-c3cccc(Cl)c3)n[nH]2)cc1)c1cccc(CN2CCS(=O)(=O)CC2)c1",
    "testTarget": "mouse SMO^W535L (Mus musculus, UniProt P56726, W539L)",
    "Mouse W535L % Inh / %": 62.5
  }
]

###

testTarget: mouse SMO^W535L (Mus musculus, UniProt P56726, W539L)
Construct: expressed in transfected cells
assayProcedure: Mouse assay: Gli1 qPCR in MEF cells stably expressing mouse SMO W535L; note: test concentration or dose not given here
Assay type: cell-based
conditionNotes: mSHh-treated, 24 hours, percentage Gli1 inhibition
attributeMeasured: Mouse W535L % Inh (%)

[
  {
    "smilesStr": "O=C(Nc1ccc(-c2nc(Cc3cc4c(cc3Cl)OCO4)n[nH]2)cc1)c1cccc(CN2CCS(=O)(=O)CC2)c1",
    "result": 64.8
  },
  {
    "smilesStr": "Cc1c(-c2ccc(NC(=O)c3ccc(Cl)c(CN4CCS(=O)(=O)CC4)c3)cc2)nn(C)c1C1CC1",
    "result": 58.6
  },
  {
    "smilesStr": "O=C(Nc1ccc(-c2cnc(C3CC3)o2)cc1)c1cccc(CN2CCS(=O)(=O)CC2)c1",
    "result": 63.2
  },
  {
    "smilesStr": "O=C(Nc1ccc(-c2nc(Cc3ccc4c(c3)OCCO4)n[nH]2)cc1)c1cccc(CN2CCS(=O)(=O)CC2)c1",
    "result": 59.7
  }
]

###

testTarget: mouse SMO^W535L (Mus musculus, UniProt P56726, W539L)
Construct: expressed in transfected cells
assayProcedure: Mouse assay: Gli1 qPCR in MEF cells stably expressing mouse SMO W535L; note: test concentration or dose not given here
Assay type: cell-based
conditionNotes: mSHh-treated, 24 hours, percentage Gli1 inhibition
attributeMeasured: Mouse W535L % Inh (%)

[
  {
    "smilesStr": "CC(C)c1noc(-c2ccc(NC(=O)c3cccc(CN4CCS(=O)(=O)CC4)c3)cc2)n1",
    "testTarget": "mouse SMO^W535L (Mus musculus, UniProt P56726, W539L)",
    "unitsLabel": "%",
    "Mouse W535L % Inh": 54.8
  },
  {
    "smilesStr": "Cc1nc(-c2ccc(NC(=O)c3cccc(CN4CCS(=O)(=O)CC4)c3)cc2)oc1C",
    "testTarget": "mouse SMO^W535L (Mus musculus, UniProt P56726, W539L)",
    "unitsLabel": "%",
    "Mouse W535L % Inh": 78.6
  },
  {
    "smilesStr": "Cn1nc(-c2ccc(NC(=O)c3cccc(CN4CCS(=O)(=O)CC4)c3)nc2)cc1C1CC1",
    "testTarget": "mouse SMO^W535L (Mus musculus, UniProt P56726, W539L)",
    "unitsLabel": "%",
    "Mouse W535L % Inh": 61.1
  },
  {
    "smilesStr": "Cl.O=C(Nc1ccc(-c2noc(C3CC3)n2)cc1)c1cccc(CN2CCS(=O)(=O)CC2)c1",
    "testTarget": "mouse SMO^W535L (Mus musculus, UniProt P56726, W539L)",
    "unitsLabel": "%",
    "Mouse W535L % Inh": 57.8
  }
]
